# Test system: cancer cell lines
# Assay Method Text: Cytotoxicity in a wide variety of cancer cell types (TC50, CellTiter-Glo, 72 or 96 hours)
# Condition Parameters: read-out: TC50; SU-DHL-5 cells, lymphoma; 3 DAY
Recorded Metric: CC50 (nM)
The figure you give is taken to be in nM; do not add the unit.

// query // returns reported CC50 for input "O=C(NCc1cccnc1)Nc1ccc(COc2ccccc2-c2ccccc2)cc1"
// result 0.9

----------
# System: cancer cell lines
# Assay Method Text: Cytotoxicity in a wide variety of cancer cell types (TC50, CellTiter-Glo, 72 or 96 hours)
# Condition Parameters: read-out: TC50; NCI-H82 cells, SCLC; 3 DAY
Recorded Metric: CC50 (nM)
Report only the number, with the unit nM understood.

// query Which CC50 reading was recorded for the molecule "O=C(NCc1cccnc1)Nc1ccc(COc2ccccc2-c2ccccc2)cc1" ?
// result 1.1

----------
# Test system: cancer cell lines
# Assay Method Text: Cytotoxicity in a wide variety of cancer cell types (TC50, CellTiter-Glo, 72 or 96 hours)
# Condition Parameters: read-out: TC50; OPM-2 cells, myeloma; 3 DAY
Recorded Metric: CC50 (nM)
The answer is to be given in nM; state only the numeric part.

// query Requested field: CC50. Item: O=C(NCc1cccnc1)Nc1ccc(COc2ccccc2-c2ccccc2)cc1 [Exemplary Compound A]
// result 1.5

----------
# Tested on: cancer cell lines
# Assay Method Text: Cytotoxicity in a wide variety of cancer cell types (TC50, CellTiter-Glo, 72 or 96 hours)
# Condition Parameters: read-out: TC50; COLO205 cells, colon; 3 DAY
Recorded Metric: CC50 (nM)
Reply with just the number (in nM).

// query CC50 lookup needed for O=C(NCc1cccnc1)Nc1ccc(COc2ccccc2-c2ccccc2)cc1 [Exemplary Compound A] , thanks.
// result 0.5

----------
# System: cancer cell lines
# Assay Method Text: Cytotoxicity in a wide variety of cancer cell types (TC50, CellTiter-Glo, 72 or 96 hours)
# Condition Parameters: read-out: TC50; NCI-H522 cells, NSCLC; 7 DAY
Recorded Metric: CC50

// query // map O=C(NCc1cccnc1)Nc1ccc(COc2ccccc2-c2ccccc2)cc1 [Exemplary Compound A] to recorded CC50 (system: cancer cell lines)
// result 400 pM

----------
# Assay Method Text: Cytotoxicity Assay (CellTiter-Glo, 72 hour drug incubation)
# Condition Parameters: human, HCT116 cells
Would you mind telling me the reported IC50 at 72 h of each entry?

// query Any idea what its IC50 at 72 h is? The molecule is "N#C/N=C(/NCc1ccc(COc2ccccc2-c2ccccc2)cc1)Nc1ccncc1"
// result ~1.1 nM

// query Fill in the blank: the reported IC50 at 72 h of "O=C(NCCCNS(=O)(=O)c1ccccc1-c1ccccc1)NCc1cccnc1" is ____.
// result ~55 nM

// query Consider the molecule shown here: "COc1cc(N/C(=N/C#N)NCc2ccc(NS(=O)(=O)c3ccccc3-c3ccccc3)cc2)ccn1" What is its recorded IC50 at 72 h?
// result ~2600 nM

// query Can you share its IC50 at 72 h? I mean this molecule: "N#Cc1ccc(S(=O)(=O)Nc2ccc(NC(=O)NCc3cccnc3)cc2)c(Cl)c1"
// result ~100 nM

// query Can you look up the measured IC50 at 72 h of "O=C(NCc1cccnc1)Nc1ccc(OCCc2ccc(F)cc2-c2ccnc(N3CCNCC3)c2)cc1" for me?
// result ~1.9 nM
